test: Vero cell growth inhibition (Sulforhodamine B protein-dye binding); format: cell-based, African green monkey; details: African green monkey, Vero cells; read-out: CC50 against Vero replication
property: CC50 at 2 days (µM)
One number for each entry, in µM.

# compound COc1cc(O)c2c(=O)c3cc(O)ccc3[nH]c2c1 [Compound 4, 1,7-Dihydroxy-3-methoxyacridone] ; its CC50 at 2 days = 25

* * *

tested on: HSV-1; assay: HSV-1 viral yield-reduction assay in Vero cells; format: cell-based, HSV-1 (KOS); details: Human alphaherpesvirus 1, Vero, read-out: ED50 HSV-1
property: pEC50
Give bare numbers, as −log10 of the molar value.

# compound O=c1c2cccc(Cl)c2[nH]c2cc(O)cc(O)c12 [Compound 1, 5-chloro-1,3-dihydroxyacridone] ; its pEC50 = 5.37

Data origin: patent US20050049273A1
